# GELATION listing for each entry below
Assay notes: Peptide hydrogel formation, vial-inverting method
Format: physicochemical
Set-up: key: 0: no hydrogel; 1: hydrogel
Condition description: peptide concentration 60 mM; vial-inverting method; 1 = hydrogel, 0 = no hydrogel
From the text: After validating the efficiency of APHC in predicting tetrapeptide hydrogels, we detailed the phase state of 165 synthesized tetrapeptides and the observed assembly behavior in an aqueous solution. This work defines hydrogel formation as a self-supporting, non-flowing mixture of water and hydrogelator by the vial-inverting method. […]
Where a SMILES comes first, the peptide text is derived from it.
Kindly provide the number alone.

Examples with their reported GELATION follow.
C[C@H](NC(=O)[C@@H](N)CO)C(=O)N[C@@H](Cc1c[nH]c2ccccc12)C(=O)N[C@@H](Cc1ccccc1)C(=O)O [SAWF] (H-SAWF-OH)
1
CC(C)[C@H](NC(=O)[C@H](Cc1ccc(O)cc1)NC(=O)[C@H](CO)NC(=O)[C@@H](N)Cc1ccccc1)C(=O)O [FSYV] (H-FSYV-OH)
1

Kindly consider the entry below.
Note to self: GELATION recorded for O=C(O)[C@H](Cc1ccc(O)cc1)NC(=O)[C@H](Cc1ccc(O)cc1)NC(=O)[C@H](Cc1c[nH]c2ccccc12)NC(=O)[C@@H]1CCCN1 [PWYY] (H-PWYY-OH) was 1

###

Assay notes: Peptide hydrogel formation, vial-inverting method
Type: physicochemical
Condition description: concentration at which the state was recorded: lowest of 30, 60, 90, 120 mM that gave a gel; 120 mM for non-gelating peptides
Where a SMILES comes first, the peptide text is derived from it.
Endpoint name: Concentration (µM)
Your answer is read as µM, so omit the unit and give the number.

Record excerpt, results attached:
CC(C)[C@H](N)C(=O)N[C@H](C(=O)N[C@H](C(=O)N[C@H](C(=O)O)C(C)C)C(C)C)C(C)C [VVVV] (H-VVVV-OH)
60000
CC[C@H](C)[C@H](N)C(=O)N[C@H](C(=O)N[C@@H](Cc1ccccc1)C(=O)N[C@@H](Cc1c[nH]c2ccccc12)C(=O)O)C(C)C [IVFW] (H-IVFW-OH)
120000

# next compound below
Form field Concentration, entry CC[C@H](C)[C@H](N)C(=O)N[C@H](C(=O)N[C@H](C(=O)N[C@H](C(=O)O)[C@@H](C)CC)[C@@H](C)CC)C(C)C [IVII] (H-IVII-OH) : 30000

###

Assay notes: Peptide hydrogel formation, vial-inverting method
Format: physicochemical
Condition description: concentration at which the state was recorded: lowest of 30, 60, 90, 120 mM that gave a gel; 120 mM for non-gelating peptides
Where a SMILES comes first, the peptide text is derived from it.
Endpoint name: Concentration (µM)
The response must be a number in µM with no trailing unit.

Here's what some known entries look like.
CC[C@H](C)[C@H](N)C(=O)N[C@@H](CCC(N)=O)C(=O)N[C@H](C(=O)N[C@H](C(=O)O)[C@@H](C)CC)[C@@H](C)CC [IQII] (H-IQII-OH)
60000
CC[C@H](C)[C@H](N)C(=O)N[C@@H](Cc1c[nH]c2ccccc12)C(=O)N[C@H](C(=O)N[C@H](C(=O)O)[C@@H](C)CC)[C@@H](C)CC [IWII] (H-IWII-OH)
120000
NC(=O)C[C@H](N)C(=O)N[C@@H](Cc1c[nH]c2ccccc12)C(=O)N[C@@H](Cc1c[nH]c2ccccc12)C(=O)N[C@@H](Cc1ccccc1)C(=O)O [NWWF] (H-NWWF-OH)
30000
CC(C)C[C@H](NC(=O)[C@H](CC(C)C)NC(=O)[C@@H](N)CC(C)C)C(=O)N[C@@H](Cc1ccc(O)cc1)C(=O)O [LLLY] (H-LLLY-OH)
30000
CC[C@H](C)[C@H](NC(=O)[C@@H](NC(=O)[C@@H](N)CC(C)C)C(C)C)C(=O)N[C@@H](Cc1ccccc1)C(=O)O [LVIF] (H-LVIF-OH)
60000

Notebook: CC(C)C[C@H](N)C(=O)NCC(=O)N[C@H](C(=O)N[C@@H](Cc1ccccc1)C(=O)O)C(C)C [LGVF] (H-LGVF-OH) , Concentration read as 120000

Origin of the recorded values: paper PMC10313671
